Value source: the Immune Epitope Database (IEDB)

Measured On: HLA-B*83:01
Protocol: IEDB peptide-MHC binding, purified MHC/competitive/fluorescence; filed as Kd, often an IC50 or EC50 that approximates it; bounds were set here for any values at or beyond the usual limits of such assays
Test Context: source organism: Sudan ebolavirus
pKd: −log10 of the molar value.
Assay Readout: pKd

Q: Name the reported pKd value associated with the sequence CTSSIQYHR
Ans: ≤ 5.30

----------
Measured On: HLA-B*15:01
Protocol: IEDB peptide-MHC binding, purified MHC/direct/fluorescence; filed as Kd, often an IC50 or EC50 that approximates it; bounds were set here for any values at or beyond the usual limits of such assays
Test Context: source organism: Toxoplasma gondii
pKd: −log10 of the molar value.
Assay Readout: pKd

Q: Report pKd for LPPVVPPLI tested on HLA-B*15:01.
Ans: ≤ 4.70

----------
Measured On: HLA-A*69:01
Protocol: IEDB peptide-MHC binding, purified MHC/competitive/fluorescence; filed as Kd, often an IC50 or EC50 that approximates it; bounds were set here for any values at or beyond the usual limits of such assays
Test Context: source organism: Reston ebolavirus
pKd: −log10 of the molar value.
Assay Readout: pKd

Q: Name the reported pKd value associated with the sequence RRELSKEKL
Ans: ≤ 4.70

----------
As shown below, each of these sequences has a reported Kd value.
Measured On: HLA-A*02:01
Protocol: IEDB peptide-MHC binding, purified MHC/competitive/fluorescence; filed as Kd, often an IC50 or EC50 that approximates it; bounds were set here for any values at or beyond the usual limits of such assays
Test Context: source organism: Human immunodeficiency virus 1

Some solved cases for reference:
{"Sequence String": "GLADQLIHL", "Measured On": "HLA-A*02:01", "Kd": "≤ 0.0001 µM"}
{"Sequence String": "GLGQHIYET", "Measured On": "HLA-A*02:01", "Kd": "3.68 µM"}
{"Sequence String": "EIKDTEEAL", "Measured On": "HLA-A*02:01", "Kd": "≥ 20 µM"}

Now look at this entry.
Q: Name the reported Kd value associated with the sequence EVKSLFNTV
Ans: ≥ 20 µM

----------
As shown below, each of these sequences has a reported Kd value.
Measured On: HLA-B*44:02
Protocol: IEDB peptide-MHC binding, purified MHC/competitive/radioactivity; filed as Kd, often an IC50 or EC50 that approximates it; bounds were set here for any values at or beyond the usual limits of such assays
Test Context: source organism: Lymphocytic choriomeningitis virus (strain Armstrong)

{"Sequence String": "KDLQRLRSL", "Measured On": "HLA-B*44:02", "Assay Readout": "Kd", "Reported": "≥ 43.6 µM"}

Now look at this entry.
Q: Name the reported Kd value associated with the sequence EDQLLPFMS
Ans: ≥ 35.2 µM

----------
Measured On: HLA-B*51:01
Protocol: IEDB peptide-MHC binding, purified MHC/direct/fluorescence; filed as Kd, often an IC50 or EC50 that approximates it; bounds were set here for any values at or beyond the usual limits of such assays
Test Context: source organism: dengue virus type 1
Assay Readout: Kd

Q: Name the reported Kd value associated with the sequence GPSLRTTTV
Ans: ≥ 20 µM

----------
Measured On: HLA-A*31:01
Protocol: IEDB peptide-MHC binding, purified MHC/competitive/radioactivity; filed as Kd, often an IC50 or EC50 that approximates it; bounds were set here for any values at or beyond the usual limits of such assays
Test Context: source organism: Vaccinia virus WR
pKd: −log10 of the molar value.
Binary classification by pKd, with 6 as an inclusive lower bound for condition met; all other cases are condition not met.

Consider the worked cases shown below.
{"Sequence String": "TFKIDAVRY", "Category": "condition not met"}
{"Sequence String": "FMRFFQLLR", "Category": "condition met"}
{"Sequence String": "YIRRNMINK", "Category": "condition not met"}

Q: Determine whether this sequence has pKd no lower than 6: LTDTEYRAR
Ans: condition not met

Q: And then FIRIIRPDY , what is it?
Ans: condition not met

Q: And then LSKWHTSAR , what is it?
Ans: condition met

Q: And then LLSINSSFY , what is it?
Ans: condition not met

Q: And then NMKQCTNDIY , what is it?
Ans: condition not met

Q: And then YLKNYKNFDY , what is it?
Ans: condition not met

----------
Measured On: HLA-B*48:01
Protocol: IEDB peptide-MHC binding, purified MHC/direct/fluorescence; filed as Kd, often an IC50 or EC50 that approximates it; bounds were set here for any values at or beyond the usual limits of such assays
Test Context: source organism: Camelpox virus CMS
Assay Readout: Kd

Q: Name the reported Kd value associated with the sequence SSDDIPPRW
Ans: ≥ 20 µM

----------
Measured On: HLA-A*01:01
Protocol: IEDB peptide-MHC binding, purified MHC/direct/fluorescence; filed as Kd, often an IC50 or EC50 that approximates it; bounds were set here for any values at or beyond the usual limits of such assays
Test Context: source organism: Bacillus anthracis
Assay Readout: Kd

Q: Name the reported Kd value associated with the sequence SQMPPQKIM
Ans: ≥ 20 µM

----------
Measured On: HLA-A*01:01
Protocol: IEDB peptide-MHC binding, purified MHC/competitive/radioactivity; filed as Kd, often an IC50 or EC50 that approximates it; bounds were set here for any values at or beyond the usual limits of such assays
Test Context: source organism: Mammarenavirus lassaense
Assay Readout: pKd
The read-out pKd is expressed as -log10 of concentration in moles per litre.

Q: Report pKd for AAHSARPPPY tested on HLA-A*01:01.
Ans: 4.73

----------
Measured On: HLA-B*57:01
Protocol: IEDB peptide-MHC binding, purified MHC/competitive/fluorescence; filed as Kd, often an IC50 or EC50 that approximates it; bounds were set here for any values at or beyond the usual limits of such assays
Test Context: source organism: Reston ebolavirus
Assay Readout: Kd

Q: Name the reported Kd value associated with the sequence RRELSKEKL
Ans: ≥ 20 µM

----------
Measured On: HLA-A*26:02
Protocol: IEDB peptide-MHC binding, purified MHC/direct/fluorescence; filed as Kd, often an IC50 or EC50 that approximates it; bounds were set here for any values at or beyond the usual limits of such assays
Test Context: source organism: West Nile virus strain PTRoxo
pKd: −log10 of the molar value.
Assay Readout: pKd

Q: Name the reported pKd value associated with the sequence ETTNWLWAF
Ans: ≥ 9.00

----------
Measured On: HLA-B*46:01
Protocol: IEDB peptide-MHC binding, purified MHC/competitive/fluorescence; filed as Kd, often an IC50 or EC50 that approximates it; bounds were set here for any values at or beyond the usual limits of such assays
Test Context: source organism: Helicobacter pylori 26695
Assay Readout: Kd

Q: Name the reported Kd value associated with the sequence GIVCYNEEV
Ans: ≥ 20 µM

----------
Measured On: HLA-A*29:02
Protocol: IEDB peptide-MHC binding, purified MHC/competitive/radioactivity; filed as Kd, often an IC50 or EC50 that approximates it; bounds were set here for any values at or beyond the usual limits of such assays
Test Context: source organism: Mammarenavirus juninense
Assay Readout: Kd

Q: Name the reported Kd value associated with the sequence KTGEKSRCY
Ans: ≥ 78.9 µM

----------
Measured On: HLA-A*02:01
Protocol: IEDB peptide-MHC binding, purified MHC/competitive/fluorescence; filed as Kd, often an IC50 or EC50 that approximates it; bounds were set here for any values at or beyond the usual limits of such assays
Test Context: source organism: human gammaherpesvirus 4
Assay Readout: pKd
The read-out pKd is expressed as -log10 of concentration in moles per litre.

Q: Name the reported pKd value associated with the sequence CLGGLLTMV
Ans: 7.64

----------
Measured On: HLA-A*68:02
Protocol: IEDB peptide-MHC binding, purified MHC/direct/fluorescence; filed as Kd, often an IC50 or EC50 that approximates it; bounds were set here for any values at or beyond the usual limits of such assays
Test Context: source organism: Reston ebolavirus
Assay Readout: Kd

Q: Name the reported Kd value associated with the sequence RRELSKEKL
Ans: ≥ 20 µM

----------
Measured On: HLA-A*02:17
Protocol: IEDB peptide-MHC binding, purified MHC/competitive/radioactivity; filed as Kd, often an IC50 or EC50 that approximates it; bounds were set here for any values at or beyond the usual limits of such assays
Test Context: source organism: Dengue virus 4 Philippines/H241/1956
Assay Readout: pKd
The read-out pKd is expressed as -log10 of concentration in moles per litre.

Q: Name the reported pKd value associated with the sequence RMVLAFITFL
Ans: 8.75

----------
Measured On: HLA-A*11:01
Protocol: IEDB peptide-MHC binding, purified MHC/competitive/fluorescence; filed as Kd, often an IC50 or EC50 that approximates it; bounds were set here for any values at or beyond the usual limits of such assays
Test Context: source organism: Vibrio parahaemolyticus AQ3810
Assay Readout: Kd

Q: Report Kd for HQFTSNPEV tested on HLA-A*11:01.
Ans: ≥ 5 µM
